# assay.target: human ether-à-go-go-related gene (hERG) potassium channel (human, UniProt Q12809);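 also: peak tail current of the secondary pulse compared with the same well before compound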
# Sequence (Q12809 whole entry, looked up): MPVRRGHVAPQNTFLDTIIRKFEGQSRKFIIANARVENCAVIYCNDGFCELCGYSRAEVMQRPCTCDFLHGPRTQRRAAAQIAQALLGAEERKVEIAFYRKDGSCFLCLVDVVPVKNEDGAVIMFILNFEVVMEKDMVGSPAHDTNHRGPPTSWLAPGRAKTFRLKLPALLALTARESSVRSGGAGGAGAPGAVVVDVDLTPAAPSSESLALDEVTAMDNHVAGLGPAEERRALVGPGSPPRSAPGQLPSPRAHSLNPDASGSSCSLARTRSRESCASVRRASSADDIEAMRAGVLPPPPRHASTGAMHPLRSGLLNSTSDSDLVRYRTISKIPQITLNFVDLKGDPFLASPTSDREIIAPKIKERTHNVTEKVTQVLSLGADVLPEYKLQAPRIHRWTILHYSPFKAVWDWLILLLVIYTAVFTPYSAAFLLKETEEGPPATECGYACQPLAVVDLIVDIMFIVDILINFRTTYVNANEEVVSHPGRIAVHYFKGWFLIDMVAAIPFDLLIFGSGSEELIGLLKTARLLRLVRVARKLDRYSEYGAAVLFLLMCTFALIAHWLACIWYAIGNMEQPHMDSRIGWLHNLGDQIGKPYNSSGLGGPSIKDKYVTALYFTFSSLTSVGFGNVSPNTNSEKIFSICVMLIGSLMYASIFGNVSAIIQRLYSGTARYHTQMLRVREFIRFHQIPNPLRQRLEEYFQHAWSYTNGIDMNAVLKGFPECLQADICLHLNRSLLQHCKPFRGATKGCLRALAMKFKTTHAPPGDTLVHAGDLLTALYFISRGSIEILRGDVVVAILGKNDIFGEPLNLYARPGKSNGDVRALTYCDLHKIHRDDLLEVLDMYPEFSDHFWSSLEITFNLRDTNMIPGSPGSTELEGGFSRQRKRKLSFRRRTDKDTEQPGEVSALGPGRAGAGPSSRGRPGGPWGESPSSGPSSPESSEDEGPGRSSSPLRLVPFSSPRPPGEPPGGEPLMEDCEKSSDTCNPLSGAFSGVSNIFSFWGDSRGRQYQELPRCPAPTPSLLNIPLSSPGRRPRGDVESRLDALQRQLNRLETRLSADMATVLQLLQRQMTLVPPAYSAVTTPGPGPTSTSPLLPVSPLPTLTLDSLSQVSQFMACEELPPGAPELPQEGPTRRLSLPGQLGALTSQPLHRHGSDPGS
# protocol.details: primary screen, population patch clamp on CHO cells stably expressing hERG; higher = less effect of the substance
Out of some 310,000 compounds screened, about 14,000 (4.5%) showed an effect of 50% or more. Effects have a minus sign here. Only a selection was taken, and strong results are over-represented in it overall.
readout.name: hERG current change (%, negative = inhibition) at 10uM

compound | assay.target | observed.measurement
Cc1cc(C)nc(/N=C(\N)Nc2cccc(OCc3ccccc3)c2)n1 | human ether-à-go-go-related gene (hERG) potassium channel (human, UniProt Q12809) | -74.1%
COCCN(C(=S)Nc1cc(C)ccc1C)C(C)c1cccnc1 (stereo not shown) | human ether-à-go-go-related gene (hERG) potassium channel (human, UniProt Q12809) | -25.4%
CCOc1ccc(N2CC(C(=O)NC3CCCC3)CC2=O)cc1 (stereo not shown) | human ether-à-go-go-related gene (hERG) potassium channel (human, UniProt Q12809) | 2.11%
Cc1ccc(NC(=O)CCCCCN2C(=O)[C@@H]3Cc4ccccc4CN3C2=O)cc1 | human ether-à-go-go-related gene (hERG) potassium channel (human, UniProt Q12809) | -12.1%
CCCn1c(=O)c(C(=O)NCCc2ccc(OC)c(OC)c2)c(O)c2ccccc21 | human ether-à-go-go-related gene (hERG) potassium channel (human, UniProt Q12809) | 10.5%
CC1CCCC(NC(=S)Nc2cccc(S(=O)(=O)N(C)C)c2)C1C (stereo not shown) | human ether-à-go-go-related gene (hERG) potassium channel (human, UniProt Q12809) | 13.7%
CNc1nnc(-c2ccc(N(C)C)cc2)s1 | human ether-à-go-go-related gene (hERG) potassium channel (human, UniProt Q12809) | 8.65%
Cc1cc(C)nc(/N=C(\N)Nc2ccc(S(=O)(=O)Nc3nccc(C)n3)cc2)n1 | human ether-à-go-go-related gene (hERG) potassium channel (human, UniProt Q12809) | 19.8%
Cc1ccc(C)c(OCCC(=O)NCCc2ccc(S(N)(=O)=O)cc2)c1 | human ether-à-go-go-related gene (hERG) potassium channel (human, UniProt Q12809) | 10.7%
NC(=S)Nc1ccc(C(F)(F)F)cc1Cl | human ether-à-go-go-related gene (hERG) potassium channel (human, UniProt Q12809) | 0.127%
COc1ccc(Cl)c(N2CCN(CCCNC(=O)Nc3ccc(C)cc3)CC2)c1 | human ether-à-go-go-related gene (hERG) potassium channel (human, UniProt Q12809) | -72.4%
Cc1cc(C)cc(NC(=O)CCCN2C(=O)C(c3ccccc3)Oc3cccnc32)c1 (stereo not shown) | human ether-à-go-go-related gene (hERG) potassium channel (human, UniProt Q12809) | -1.03%
COc1ccc(CNC(=O)CCN2C(=O)c3ccncc3C2=O)cc1OC | human ether-à-go-go-related gene (hERG) potassium channel (human, UniProt Q12809) | 13%
O=C(CCN1C(=O)c2ccccc2C1=O)NCc1ccc(Cl)cc1 | human ether-à-go-go-related gene (hERG) potassium channel (human, UniProt Q12809) | -16.9%
COc1ccc(-c2[nH]ncc2CNC(C)CCn2cccn2)c(F)c1 (stereo not shown) | human ether-à-go-go-related gene (hERG) potassium channel (human, UniProt Q12809) | -15.4%
O=C(CCN1C(=O)[C@@H]2Cc3ccccc3CN2C1=O)NCc1ccc(Cl)cc1 | human ether-à-go-go-related gene (hERG) potassium channel (human, UniProt Q12809) | -64.2%
CC(C)OC(=O)CSc1nnc(-c2ccc(Cl)cc2Cl)o1 | human ether-à-go-go-related gene (hERG) potassium channel (human, UniProt Q12809) | -7.24%
Cc1cc(C)nc(SCc2cn3c(C)cccc3n2)n1 | human ether-à-go-go-related gene (hERG) potassium channel (human, UniProt Q12809) | 6.36%
Clc1ccc(SCc2cn3ccccc3n2)cc1 | human ether-à-go-go-related gene (hERG) potassium channel (human, UniProt Q12809) | -18.1%
CC(C)(C)C(=O)NC1CCSC1=O (stereo not shown) | human ether-à-go-go-related gene (hERG) potassium channel (human, UniProt Q12809) | 8.46%
CCOc1ccc(N/C(N)=N/c2nc(C)cc(C)n2)cc1 | human ether-à-go-go-related gene (hERG) potassium channel (human, UniProt Q12809) | -46.5%
O=C(Nc1cc(=O)[nH]c2ncnn12)c1ccccc1F | human ether-à-go-go-related gene (hERG) potassium channel (human, UniProt Q12809) | 11%
CN(C(=O)COC(=O)c1ccc2c(=O)n3c(nc2c1)CCC3)C1CCS(=O)(=O)C1 (stereo not shown) | human ether-à-go-go-related gene (hERG) potassium channel (human, UniProt Q12809) | 10.5%
CCOc1ccc(N)c(SSc2cc(OCC)ccc2N)c1 | human ether-à-go-go-related gene (hERG) potassium channel (human, UniProt Q12809) | 19.3%
Cc1cc(C)nc(/N=C(\N)Nc2cccc([N+](=O)[O-])c2)n1 | human ether-à-go-go-related gene (hERG) potassium channel (human, UniProt Q12809) | -28.7%
CC(Cc1ccsc1)NCc1cn[nH]c1-c1ccc(F)cc1F (stereo not shown) | human ether-à-go-go-related gene (hERG) potassium channel (human, UniProt Q12809) | -66.3%
O=C(Cn1cc(C(=O)COc2ccccc2)c2ccccc21)NCc1ccco1 | human ether-à-go-go-related gene (hERG) potassium channel (human, UniProt Q12809) | -0.105%
Cc1ccc2nc(SCc3cn4c(C)cc(C)nc4n3)[nH]c2c1 | human ether-à-go-go-related gene (hERG) potassium channel (human, UniProt Q12809) | -20.9%
COc1ccc(NC(=O)C(C)Sc2ccccc2)cc1 (stereo not shown) | human ether-à-go-go-related gene (hERG) potassium channel (human, UniProt Q12809) | 1.14%
Cc1ccc(SCc2cn3c(C)cc(C)nc3n2)cc1 | human ether-à-go-go-related gene (hERG) potassium channel (human, UniProt Q12809) | -67.1%
Cc1cccc2nc(CSc3ccc(Cl)cc3)cn12 | human ether-à-go-go-related gene (hERG) potassium channel (human, UniProt Q12809) | -74.3%
O=C(CCN1C(=O)[C@@H]2Cc3ccccc3CN2C1=O)NCc1ccccc1 | human ether-à-go-go-related gene (hERG) potassium channel (human, UniProt Q12809) | -12%
CCOC(=O)C1CCN(C(=O)CSc2n[nH]c(=O)[nH]c2=O)CC1 | human ether-à-go-go-related gene (hERG) potassium channel (human, UniProt Q12809) | 7.16%
CCOc1ccc(/C=C/C(=O)CCC(=O)O)cc1 | human ether-à-go-go-related gene (hERG) potassium channel (human, UniProt Q12809) | 13.5%
CCOC(=O)c1ccc(NC(=O)CSc2nc(=O)n3cccc(C)c3n2)cc1 | human ether-à-go-go-related gene (hERG) potassium channel (human, UniProt Q12809) | -21.9%
COc1ccccc1NC(=O)C(=O)NCC(c1ccco1)N1CCc2ccccc21 (stereo not shown) | human ether-à-go-go-related gene (hERG) potassium channel (human, UniProt Q12809) | -1.64%
O=C(Cc1ccsc1)NCc1ccccc1F | human ether-à-go-go-related gene (hERG) potassium channel (human, UniProt Q12809) | 17.1%
O=C(Nc1ccccc1)NC1CCCCNC1=O (stereo not shown) | human ether-à-go-go-related gene (hERG) potassium channel (human, UniProt Q12809) | 21.4%
O=c1[nH]c(Cl)ccc1CN1CCOCC1 | human ether-à-go-go-related gene (hERG) potassium channel (human, UniProt Q12809) | 14.5%
Fc1cccc(Cl)c1CSc1nnc2ccccn12 | human ether-à-go-go-related gene (hERG) potassium channel (human, UniProt Q12809) | 9.48%
Cc1ccc(CNC(=O)CCN2C(=O)[C@@H]3Cc4ccccc4CN3C2=O)cc1 | human ether-à-go-go-related gene (hERG) potassium channel (human, UniProt Q12809) | -40.5%
O=[N+]([O-])c1cccn2cc(-c3ccc(Br)cc3)nc12 | human ether-à-go-go-related gene (hERG) potassium channel (human, UniProt Q12809) | -2.94%
Cc1cc(C)cc(NC(=O)CCCCCN2C(=O)[C@@H]3Cc4ccccc4CN3C2=O)c1 | human ether-à-go-go-related gene (hERG) potassium channel (human, UniProt Q12809) | -51.9%
